Test: Pharmacokinetics of R-55 following intravenous administration in pigs
Type: in vivo, White Landrace female pigs
Details: female, White Landrace, pig, plasma, iv, 0.2 mg/kg, 0.2 mg/kg intravenous, individual animals, read-out: Volume of distribution at steady state
ASSAY_READOUT: Vd (L/kg)
Provide the reading as a plain figure in L/kg.

### Prompt Vd lookup needed for `O=c1[nH]c(CN2CCN(c3cccc(O)c3)CC2)nc2ccccc12` , thanks.
### Response 1.51

====

Test: Transdermal administration of R-55 formulation to pigs, plasma R-55
Format: in vivo, White Landrace female pigs
Conditions: female, White Landrace, pig, plasma, topical, 500 mg, transdermal 500 mg R-55, 6 hours after application, individual animals #1-#4
Experimental: R-55 and related compounds were assayed in the plasma samples using a Waters (USA) Alliance high performance liquid chromatograph coupled with a Waters Micromass ZQ quadruple mass spectrometer (in ESI+ mode) as a detector with Waters Empower chromatographic and mass spectrometric software for chromatographic data acquisition, processing and instrument control. […]
ASSAY_READOUT: concentration at 6 h
Be sure to follow the number with its unit.

### Prompt Looking for the measured concentration at 6 h of `O=c1[nH]c(CN2CCN(c3cccc(O)c3)CC2)nc2ccccc12` , can you help?
### Response 0 ng/mL

====

Test: Pharmacokinetics of R-55 following intravenous administration in pigs
Type: in vivo, White Landrace female pigs
Details: female, White Landrace, pig, plasma, iv, 0.2 mg/kg, 0.2 mg/kg intravenous, 5 minutes after injection, individual animals #1-#3
ASSAY_READOUT: concentration at 5 min (ng/mL)
Express it in ng/mL; write the number only.

### Prompt // returns reported concentration at 5 min for input `O=c1[nH]c(CN2CCN(c3cccc(O)c3)CC2)nc2ccccc12`
### Response 158

====

Experiment: Pharmacokinetics of R-55 following intravenous administration in pigs
Type: in vivo, White Landrace female pigs
Conditions: female, White Landrace, pig, plasma, iv, 0.2 mg/kg, 0.2 mg/kg intravenous, individual animals, read-out: Cmax - maximal concentration
ASSAY_READOUT: Cmax (ng/mL)
Supply the numeric figure in ng/mL, leaving out any unit text.

### Prompt Which Cmax is reported for this compound? `O=c1[nH]c(CN2CCN(c3cccc(O)c3)CC2)nc2ccccc12`
### Response 158

====

Assay: Transdermal administration of R-55 formulation to pigs, plasma R-55
Format: in vivo, White Landrace female pigs
Details: female, White Landrace, pig, plasma, topical, 500 mg, transdermal 500 mg R-55, 4 hours after application, individual animals #1-#4
ASSAY_READOUT: concentration at 4 h (ng/mL)
Please give a number only; it is taken to be in ng/mL.

### Prompt Find the recorded concentration at 4 h belonging to `O=c1[nH]c(CN2CCN(c3cccc(O)c3)CC2)nc2ccccc12` and report it.
### Response 0

====

Test: Pharmacokinetics of R-55 following intravenous administration in pigs
Assay type: in vivo, White Landrace female pigs
Settings: female, White Landrace, pig, plasma, iv, 0.2 mg/kg, 0.2 mg/kg intravenous, t=0 to 6 hours, individual animals
ASSAY_READOUT: AUC (ng·h/mL)
Hi! Could you send only the number? It should be in ng·h/mL, unit omitted.

### Prompt What does the record list as AUC for `O=c1[nH]c(CN2CCN(c3cccc(O)c3)CC2)nc2ccccc12` ?
### Response 27.9
